tested on: Plasmodium berghei; assay: Luciferase/luciferin-expressing antifolate-resistant parasites were used to infect a culture of HepG2 cells that were pre-incubated with compounds. Infected hepatocytes emit light due to the luciferase reaction. Assay results are presented as the percent inhibition of light emission compared to control. […]; assay type: functional; conditions: sporozoite, HEPG2TOX_HILL_SLOPE 1.61, HEPG2TOX_R_SQUARED 0.989, PBLUC_HILL_SLOPE 2.28, PBLUC_R_SQUARED 0.71, read-out: LUCIFERASE INFECTION ASSAY - IC50
measure: IC50 (nM)
One number for each entry, in nM.

Query: Fill blank: measured IC50 of the compound Cn1c(-c2cc3c(s2)CCC(C(C)(C)C)C3)n[nH]c1=S (stereo unspecified) is ____.
Response: 2900

###

system: Plasmodium berghei; assay: Luciferase/luciferin-expressing antifolate-resistant parasites were used to infect a culture of HepG2 cells that were pre-incubated with compounds. Infected hepatocytes emit light due to the luciferase reaction. Assay results are presented as the percent inhibition of light emission compared to control. […]; format: functional; details: sporozoite, read-out: LUCIFERASE INFECTION ASSAY - IC90
measure: IC90

>>> assay_value("O=C1Nc2ccccc2/C1=C/c1ccc(C(F)(F)F)cc1Cl")
"> 10.2 µM"
>>> assay_value("CC(=O)Nc1cccc(-c2cn3c(-c4cccs4)cnc3cn2)c1")
"> 9.87 µM"
>>> assay_value("CCOC(=O)c1sc2nc(C)nc(N(C)Cc3ccccc3)c2c1C")
"> 10 µM"
>>> assay_value("CC(C)(C(=O)Nc1ccon1)n1cc(-c2ccc(OCCN3CCCC3)cc2)cn1")
"> 10 µM"
>>> assay_value("CN(C)c1cc(CNC(=O)c2cc3c(F)cccc3s2)ccn1")
"7.57 µM"

Quick batch: IC90 for everything below.
1. COc1cc(OC)cc(C2c3c(C)nn(-c4ccccc4)c3NC(=O)C2NC(=O)c2ccccc2)c1 (stereo not drawn)
2. Cc1ccc2c(c1)CCCN2C(=O)CCc1nc(O)c2ccccc2n1
3. COc1ccc(Nc2nccc3[nH]c(-c4ccsc4)cc23)cn1
4. O=C(CN1CCN(C(=O)c2ccccc2COc2ccccc2)CC1)Nc1ccccc1Cl

Response:
> 10 µM
> 10 µM
> 10 µM
> 10 µM

Quick batch: IC90 for everything below.
1. O=C(COc1ccc2c3c(c(=O)oc2c1)CCC3)Nc1nc(-c2ccccn2)cs1
2. C=C(C)C(=O)Oc1cccc(Oc2c(F)c(F)c(-c3c(F)c(F)c(Oc4cccc(OC(=O)C(=C)C)c4)c(F)c3F)c(F)c2F)c1
3. FC(F)(F)c1cc(NCc2ccccc2C(F)(F)F)nc(-c2ccccn2)n1
4. COc1ccc(CCN=C(S)NC2CCN(Cc3ccccc3)CC2)cc1
5. CCNc1ccc(C(=O)Nc2ccc3nc(C)sc3c2)cc1[N+](=O)[O-]
6. CC(C)(C)c1ccccc1NC(=O)Nc1nc(C(N)Cc2ccccc2)cs1 (stereo not drawn)
7. COc1ccc(OC)c(C(=O)/C=C/c2cc(Br)cs2)c1
8. c1ccc(CCCNc2nnnn2-c2ccccc2)cc1

Response:
1. > 10 µM
2. > 10 µM
3. 7.12 µM
4. > 10 µM
5. > 10 µM
6. 7.79 µM
7. 5.17 µM
8. > 10 µM

Quick batch: IC90 for everything below.
1. O=C(Nc1cc(C(F)(F)F)cc(C(F)(F)F)c1)Nc1sccc1Cl
2. COCCNc1ccc2ncc(-c3ccc(Cl)cc3)n2n1
3. NC(CCc1ccccc1)c1csc(Nc2ccc(C(F)(F)F)cn2)n1 (stereo not drawn)
4. CC(Nc1ccc(OC(F)(F)F)cc1)C(=O)Nc1ccc(C#N)c(Cl)c1 (stereo not drawn)
5. O=C(NNc1cc(C(F)(F)F)nc2ccccc12)Nc1ccc(Cl)cc1

Response:
1: 2.93 µM; 2: 5.92 µM; 3: 4.5 µM; 4: > 10 µM; 5: > 8.67 µM

###

system: Plasmodium berghei; experiment: Luciferase/luciferin-expressing antifolate-resistant parasites were used to infect a culture of HepG2 cells that were pre-incubated with compounds. Infected hepatocytes emit light due to the luciferase reaction. Assay results are presented as the percent inhibition of light emission compared to control. […]; type: functional; settings: sporozoite, HEPG2TOX_HILL_SLOPE 2.45, HEPG2TOX_R_SQUARED 0.911, PBLUC_HILL_SLOPE 2.73, PBLUC_R_SQUARED 0.663, read-out: LUCIFERASE INFECTION ASSAY - IC50
measure: pIC50
One number for each entry, as −log10 of the molar value.

Query: Fill blank: measured pIC50 of the molecule COc1ccc(-c2ccnc3n[nH]c(-c4ccccc4)c23)cc1OC is ____.
Response: 5.83

###

tested on: Plasmodium berghei; test: Luciferase/luciferin-expressing antifolate-resistant parasites were used to infect a culture of HepG2 cells that were pre-incubated with compounds. Infected hepatocytes emit light due to the luciferase reaction. Assay results are presented as the percent inhibition of light emission compared to control. […]; assay type: functional; details: sporozoite, PBLUC_HILL_SLOPE 3.16, PBLUC_R_SQUARED 0.0582, read-out: LUCIFERASE INFECTION ASSAY - IC50
measure: pIC50
One number for each entry, as −log10 of the molar value.

Query: Fill blank: measured pIC50 of the compound O=C(CN1CCN(c2cccc(Cl)c2)CC1)Nc1cc(C2CC2)nn1-c1ccccc1 is ____.
Response: 5.16

###

test system: Plasmodium berghei; assay: Luciferase/luciferin-expressing antifolate-resistant parasites were used to infect a culture of HepG2 cells that were pre-incubated with compounds. Infected hepatocytes emit light due to the luciferase reaction. Assay results are presented as the percent inhibition of light emission compared to control. […]; assay type: functional; settings: sporozoite, FFLUC_HILL_SLOPE 2.47, FFLUC_R_SQUARED 0.0888, HEPG2TOX_HILL_SLOPE 0.21, HEPG2TOX_R_SQUARED 0.178, PBLUC_HILL_SLOPE 0.977, PBLUC_R_SQUARED 0.273, read-out: LUCIFERASE INFECTION ASSAY - IC50
measure: IC50

Query: Fill blank: measured IC50 of the compound O=[N+]([O-])c1ccc(Sc2ccc(Cl)cc2)c(-c2cc[nH]n2)c1 is ____.
Response: > 9.95 µM

###

tested on: Plasmodium berghei; assay: Luciferase/luciferin-expressing antifolate-resistant parasites were used to infect a culture of HepG2 cells that were pre-incubated with compounds. Infected hepatocytes emit light due to the luciferase reaction. Assay results are presented as the percent inhibition of light emission compared to control. […]; type: functional; conditions: sporozoite, HEPG2TOX_HILL_SLOPE 1.24, HEPG2TOX_R_SQUARED 0.963, PBLUC_HILL_SLOPE 1.6, PBLUC_R_SQUARED 0.807, read-out: LUCIFERASE INFECTION ASSAY - IC50
measure: pIC50
One number for each entry, as −log10 of the molar value.

Query: Fill blank: measured pIC50 of the molecule O=C(c1cnc2cc3c(cc2c1)OCCO3)c1cc(F)ccc1O is ____.
Response: 6.21

###

test system: Plasmodium berghei; assay: Luciferase/luciferin-expressing antifolate-resistant parasites were used to infect a culture of HepG2 cells that were pre-incubated with compounds. Infected hepatocytes emit light due to the luciferase reaction. Assay results are presented as the percent inhibition of light emission compared to control. […]; format: functional; conditions: sporozoite, PBLUC_HILL_SLOPE 1.31, PBLUC_R_SQUARED 0.816, read-out: LUCIFERASE INFECTION ASSAY - IC50
measure: pIC50
Give bare numbers, as −log10 of the molar value.

Query: Entry CC(=O)Nc1ccc(NC(=O)/C=C/c2cc(C)n(-c3ccccc3)c2C)c(C(F)(F)F)c1 , system Plasmodium berghei: what pIC50 was measured?
Response: 5.76

###

tested on: Plasmodium berghei; assay: Luciferase/luciferin-expressing antifolate-resistant parasites were used to infect a culture of HepG2 cells that were pre-incubated with compounds. Infected hepatocytes emit light due to the luciferase reaction. Assay results are presented as the percent inhibition of light emission compared to control. […]; format: functional; conditions: sporozoite, read-out: LUCIFERASE INFECTION ASSAY - IC50
measure: IC50

// worked examples, IC50 included
>>> assay_value("COc1ccc(C2CC(c3ccccc3)=NN2C(=O)COc2c(Cl)cc(Cl)c3ccc(C)nc23)cc1 (stereo not drawn)")
"> 10 µM"
>>> assay_value("COc1cc(C(=O)c2c(C)c(CCC#N)n3ccccc23)cc(OC)c1OC")
"2 µM"

Below: the item to evaluate.
Query: Fill blank: measured IC50 of the compound C[C@H]1O[C@@H](O[C@H]2[C@@H](O)C[C@H](O[C@H]3[C@@H](O)C[C@H](O[C@H]4CC[C@@]5(C)[C@H](CC[C@@H]6[C@@H]5C[C@@H](O)[C@]5(C)[C@@H](C7=CC(=O)OC7)CC[C@]65O)C4)O[C@@H]3C)O[C@@H]2C)C[C@H](O)[C@@H]1O is ____.
Response: 0.0489 µM
